Taken from paper PMC6116703.

System: human breast cancer cell MDA-MB-231
Experiment: Cell proliferation (MTT) assay, MDA-MB-231
Format: cell-based
Conditions: antiproliferative, MTT, 48 h exposure; read-out: IC50 MDA-MB-231
Endpoint: pIC50
Note: pIC50 values are expressed as the negative base-10 logarithm of concentration in M.

COc1cccc(/C=C/S(=O)(=O)F)c1: 4.55

// query pIC50 value for entry O=S(=O)(F)/C=C/c1cccc(O)c1
4.63

Try O=Cc1ccc(/C=C/S(=O)(=O)F)o1 next.
4.67

---

Biological target: telomerase (Homo sapiens, UniProt O14746)
Construct: endogenous in cells; host or cells: A375 human melanoma cells
Sequence (O14746 whole entry): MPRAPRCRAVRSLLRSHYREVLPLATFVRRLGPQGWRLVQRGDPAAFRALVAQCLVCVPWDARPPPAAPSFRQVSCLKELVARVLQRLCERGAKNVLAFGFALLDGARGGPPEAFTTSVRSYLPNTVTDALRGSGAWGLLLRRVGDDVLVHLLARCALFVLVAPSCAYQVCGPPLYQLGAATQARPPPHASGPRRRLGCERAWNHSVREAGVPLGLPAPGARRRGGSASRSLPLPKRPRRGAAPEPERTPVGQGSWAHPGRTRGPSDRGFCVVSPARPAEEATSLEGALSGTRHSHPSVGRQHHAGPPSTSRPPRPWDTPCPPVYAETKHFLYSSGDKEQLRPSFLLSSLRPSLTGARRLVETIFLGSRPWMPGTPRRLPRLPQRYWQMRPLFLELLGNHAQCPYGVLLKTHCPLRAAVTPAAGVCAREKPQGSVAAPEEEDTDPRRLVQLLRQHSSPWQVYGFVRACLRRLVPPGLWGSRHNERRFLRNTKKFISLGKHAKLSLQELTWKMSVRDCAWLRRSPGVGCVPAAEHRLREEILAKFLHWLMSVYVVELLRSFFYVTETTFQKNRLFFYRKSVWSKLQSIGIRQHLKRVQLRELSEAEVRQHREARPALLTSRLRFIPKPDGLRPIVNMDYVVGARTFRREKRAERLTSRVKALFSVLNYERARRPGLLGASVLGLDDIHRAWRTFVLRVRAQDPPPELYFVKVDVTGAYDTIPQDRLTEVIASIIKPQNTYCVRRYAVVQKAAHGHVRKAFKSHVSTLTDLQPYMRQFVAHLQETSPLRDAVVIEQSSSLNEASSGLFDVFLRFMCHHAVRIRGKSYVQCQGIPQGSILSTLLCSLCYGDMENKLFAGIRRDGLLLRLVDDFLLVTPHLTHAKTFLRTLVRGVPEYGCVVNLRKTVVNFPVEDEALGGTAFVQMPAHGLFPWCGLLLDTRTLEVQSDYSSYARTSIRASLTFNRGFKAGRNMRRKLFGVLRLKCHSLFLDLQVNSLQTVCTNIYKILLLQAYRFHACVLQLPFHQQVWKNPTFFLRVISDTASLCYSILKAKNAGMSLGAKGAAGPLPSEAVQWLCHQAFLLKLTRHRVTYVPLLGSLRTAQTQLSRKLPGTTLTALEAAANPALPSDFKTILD
Assay: Telomerase activity TRAP-PCR-ELISA assay (A375 cell extract)
Assay type: biochemical
Conditions: IC50 inhibitory activity against telomerase, TRAP-PCR-ELISA, A375 cells, 24 h treatment
Endpoint: IC50 (µM)
The answer is to be given in µM; state only the numeric part.

Recorded IC50, per entry:
O=S(=O)(F)/C=C/c1cc(Cl)cc(Cl)c1: 4.22
O=S(=O)(F)/C=C/C=C/c1ccccc1: 40.2
O=S(=O)(F)/C=C/C=C/c1ccc2ccccc2c1: 47.2

// query IC50 value for entry N#Cc1ccc(/C=C/S(=O)(=O)F)cc1
39

Try O=S(=O)(F)/C=C/c1cccc(F)c1 next.
1.09

Try O=S(=O)(F)/C=C/c1cc(F)nc(F)c1 next.
44.2

Try Cc1ccc(S(=O)(=O)n2cc(/C=C/S(=O)(=O)F)c3ccccc32)cc1 next.
15.2

Try O=S(=O)(F)/C=C/c1ccc(Cl)cc1 next.
3.02

Try CC(C)S(=O)(=O)c1ccc(/C=C/S(=O)(=O)F)cc1 next.
37.9

Try O=Cc1ccc(/C=C/S(=O)(=O)F)cc1 next.
1.87

Try O=S(=O)(F)/C=C/c1ccc2ccccc2c1 next.
0.81

Try O=S(=O)(F)/C=C/c1cc(Cl)nc(Cl)c1 next.
49.3

Try COc1ccc(Cl)cc1/C=C/S(=O)(=O)F next.
6.08

Try O=S(=O)(F)/C=C/c1ccc(I)cc1 next.
45.3

Try O=S(=O)(F)/C=C/c1cc2ccccc2o1 next.
48.8

Try O=S(=O)(F)/C=C/c1ccccc1 next.
2.41

Try COc1cc(/C=C/S(=O)(=O)F)cc(OC)c1 next.
1.87
